The reported measurements were obtained from PubChem BioAssay (EPA / NIEHS).

Test: CEETOX_H295R_OHPROG: CeeTox H295R High-throughput Steroidogenesis Assay for OH-Progesterone (OHPROG) (AID 2283435);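 further: human adrenal H295R cells primed 48 h with 10 µM forskolin; 17alpha-hydroxyprogesterone secreted into medium measured by HPLC-MS/MS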
Settings: actives raise or lower the signal
Calls of active or inactive are those of the source. How the source made its calls: active means hit-call score of the fitted dose curve at least 0.9, where 1 is the maximum; inactive means score below 0.9.
Your answer must be one of the following: active, inactive

Hello, I am checking results. What call was entered for Nc1ccc(Cl)cc1 ?
active

Hello, I am checking results. What call was entered for O=P(Oc1ccccc1)(Oc1ccccc1)Oc1ccccc1 ?
active

Hello, I am checking results. What call was entered for O=S(=O)(c1ccc(O)cc1)c1ccc(O)cc1 ?
active

----------
Target: Nuclear respiratory factor 1 (Homo sapiens) (UniProt Q16656)
Sequence (Q16656 whole entry, looked up): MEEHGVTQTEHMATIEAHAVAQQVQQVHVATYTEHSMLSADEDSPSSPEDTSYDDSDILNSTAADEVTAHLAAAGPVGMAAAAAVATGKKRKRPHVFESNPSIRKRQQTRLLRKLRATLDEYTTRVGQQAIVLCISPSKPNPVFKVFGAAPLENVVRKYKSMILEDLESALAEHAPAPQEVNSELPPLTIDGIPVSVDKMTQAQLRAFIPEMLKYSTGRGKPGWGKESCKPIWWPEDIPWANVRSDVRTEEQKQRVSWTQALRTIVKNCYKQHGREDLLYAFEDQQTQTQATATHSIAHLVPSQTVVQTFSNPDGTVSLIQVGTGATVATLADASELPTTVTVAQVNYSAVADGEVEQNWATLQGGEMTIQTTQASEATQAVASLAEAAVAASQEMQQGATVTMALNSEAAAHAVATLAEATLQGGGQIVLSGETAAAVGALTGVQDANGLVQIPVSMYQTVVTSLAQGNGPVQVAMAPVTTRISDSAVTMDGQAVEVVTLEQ
Assay: ATG_NRF1_CIS: Attagene CIS-FACTORIAL HepG2 Assay for human Nuclear Respiratory Factor 1 (NRF1) Orphan Gene (AID 2282987)
Conditions: HepG2 NRF1 cis-element reporter, Attagene multiplex; actives raise or lower the signal
Activity calls are given as the source filed them. How the source made its calls: active means hit-call score of the fitted dose curve at least 0.9, where 1 is the maximum; inactive means score below 0.9.
Your answer must be one of the following: active, inactive

>>> class_name("Nc1ccc2ccccc2c1")
"inactive"

Hello, I am checking results. What call was entered for CCOP(=S)(NC(C)C)Oc1ccccc1C(=O)OC(C)C (stereo not drawn) ?
inactive

Hello, I am checking results. What call was entered for ClC(Cl)(Cl)c1ccccc1 ?
inactive

Hello, I am checking results. What call was entered for COP(=O)(O)OC ?
inactive

----------
Read-out: TIMP metallopeptidase inhibitor 1 (TIMP1), TIMP1 (gene 7076)
Test: BSK_MyoF_TIMP1: BioMAP Diversity Plus: MyoF Assay for TIMP metallopeptidase inhibitor 1 (TIMP1) Biomarker Activity (AID 2284269)
Conditions: primary human lung fibroblasts
The source made the active and inactive calls. The calls were made as follows: active = hit-call score of the fitted dose curve at least 0.9, where 1 is the maximum; inactive = score below 0.9.
Your answer must be one of the following: active, inactive

>>> class_name("CC(C)Nc1ccc(Nc2ccccc2)cc1")
"active"
>>> class_name("c1ccc2c(c1)sc1ccccc12")
"inactive"
>>> class_name("CC(Cl)CN(C)C (stereo unspecified)")
"inactive"

Hello, I am checking results. What call was entered for O=P(OCC(Br)CBr)(OCC(Br)CBr)OCC(Br)CBr (stereo unspecified) ?
inactive

Hello, I am checking results. What call was entered for OCC(F)(F)OC(F)(F)C(F)(F)OC(F)(F)CO ?
inactive

Hello, I am checking results. What call was entered for N#Cc1c(-c2ccc(Cl)cc2)[nH]c(C(F)(F)F)c1Br ?
active

----------
Test: CEETOX_H295R_11DCORT: CeeTox H295R High-throughput Steroidogenesis Assay for 11-Deoxycortisol (11DCORT) (AID 2283432);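 on AC50: human adrenal H295R cells prestimulated with 10 µM forskolin for 48 h; 11-deoxycortisol secreted into the medium measured by LC-MS/MS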
Settings: actives raise or lower the signal
Active and inactive are the calls of the source. The calls were made as follows: active = hit-call score of the fitted dose curve at least 0.9, where 1 is the maximum; inactive = score below 0.9.
Readout: AC50

Before answering, review these 4 worked examples.
>>> reported_result("CCNc1nc(Cl)nc(NC(C)(C)C)n1")
"inactive"
>>> reported_result("Oc1ccc(I)cc1")
"inactive"
>>> reported_result("CCCCc1ccc(O)cc1")
"inactive"
>>> reported_result("Nc1cc2c3c(c1)C(c1ccccc1)=N[C@@H](NC(=O)c1cccnc1)C(=O)N3CC2")
"62 µM (active)"

Field: AC50. Fill in for each record below.
1. ClC(Cl)=C(c1ccc(Cl)cc1)c1ccccc1Cl
2. O=S1(=O)OCC2C(CO1)C1(Cl)C(Cl)=C(Cl)C2(Cl)C1(Cl)Cl (centres undefined)
3. N#Cc1c(-c2ccc(Cl)cc2)[nH]c(C(F)(F)F)c1Br
4. Nc1ccc([N+](=O)[O-])cc1Cl

1. inactive
2. 7.28 µM (active)
3. 0.37 µM (active)
4. inactive

Answer with the recorded AC50 of CCOP(=S)(OCC)SCn1nnc2ccccc2c1=O only.
inactive
